Sourced from patent US20240246946A1

target: full length mouse TREX1 (Mus musculus, UniProt Q91XB0); construct: N-terminally His-Tev tagged full length mouse TREX1; made in house; host or cells: E. coli; test: mTREX1 Biochemical Assay (fluorescence, dsDNA substrate degradation); details: biochemical, read-out: mTREX1 IC50
Sequence (Q91XB0 whole entry): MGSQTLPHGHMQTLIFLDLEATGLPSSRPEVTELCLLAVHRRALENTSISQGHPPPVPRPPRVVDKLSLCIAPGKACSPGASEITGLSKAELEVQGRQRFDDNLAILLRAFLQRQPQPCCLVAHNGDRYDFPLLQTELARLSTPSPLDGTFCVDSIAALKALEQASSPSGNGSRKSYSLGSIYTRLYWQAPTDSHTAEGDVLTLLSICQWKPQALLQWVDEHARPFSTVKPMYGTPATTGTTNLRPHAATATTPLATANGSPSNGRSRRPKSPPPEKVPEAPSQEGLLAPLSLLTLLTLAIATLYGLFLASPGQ
readout_label: IC50

Look over these answered cases.
Query string: Request the reported IC50 associated with Cc1nn(C)c(C)c1C(c1ccccc1C#N)C(C)c1nc(C(=O)Nc2cnoc2)c(O)c(=O)n1C (single isomer, unassigned) [Example 78 D1E1]
Result string: 1 to 10 nM

Query string: Can you look up the measured IC50 of CC(c1nc(C(=O)Nc2cnoc2)c(O)c(=O)n1C)C(c1ccccc1Cl)c1cn(C)nc1F (single isomer, unassigned) [Example 130 D1E1] for me?
Result string: < 1 nM

Query string: Fill in: IC50 of CCc1cnn(C(c2ccccc2Cl)C(C)c2nc(C(=O)Nc3cnoc3)c(O)c(=O)n2C)c1 (single isomer, unassigned) [Example 134 D1E2] is ___
Result string: > 10 nM

Query string: Please look up its IC50: CC(c1nc(C(=O)Nc2cnoc2)c(O)c(=O)n1C)C(c1cnn(CCN2CCOCC2)c1)c1ccccc1C#N (single isomer, unassigned) [Example 20 D1E2]
Result string: > 10 nM

Query string: For the molecule shown here, Cc1cnc(C)c(C(c2ccccc2C#N)C(C)c2nc(C(=O)Nc3cnoc3)c(O)c(=O)n2C)n1 (single isomer, unassigned) [Example 82 D1E2] , give the reported IC50.
Result string: > 10 nM

Kindly consider the entry below.
Query string: Any idea what its IC50 is? The molecule is Cc1cnc(C)c(C(c2cc(F)ccc2C#N)C(C)c2nc(C(=O)Nc3cnoc3)c(O)c(=O)n2C)n1 (single isomer, unassigned) [Example 119 DIE1]
Result string: 1 to 10 nM
